TARGET_ENTITY: human L-selectin (Homo sapiens)
Construct: purchased R&D Systems Europe Ltd., Abingdon, United Kingdom
Sequence (P14151 with tags, fused parts or gaps limits assumed): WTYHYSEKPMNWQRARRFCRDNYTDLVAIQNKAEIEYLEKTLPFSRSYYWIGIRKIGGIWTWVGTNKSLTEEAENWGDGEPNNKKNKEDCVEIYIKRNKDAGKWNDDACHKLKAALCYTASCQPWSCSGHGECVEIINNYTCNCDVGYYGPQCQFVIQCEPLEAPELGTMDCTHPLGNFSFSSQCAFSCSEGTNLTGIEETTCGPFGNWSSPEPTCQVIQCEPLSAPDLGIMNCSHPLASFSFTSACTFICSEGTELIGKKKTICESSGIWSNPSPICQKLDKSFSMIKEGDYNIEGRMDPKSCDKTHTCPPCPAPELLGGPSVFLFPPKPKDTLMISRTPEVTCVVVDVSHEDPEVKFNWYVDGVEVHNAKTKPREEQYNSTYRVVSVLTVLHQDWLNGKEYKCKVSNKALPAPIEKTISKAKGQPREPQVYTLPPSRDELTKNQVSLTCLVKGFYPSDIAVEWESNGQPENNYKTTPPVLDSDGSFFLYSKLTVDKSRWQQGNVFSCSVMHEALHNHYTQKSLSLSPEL
EXPERIMENTAL_PROTOCOL: Competition assay with biotin-PAA-Le^a-SO3H
Assay type: binding
MEASURED_QUANTITY: IC50 (µM)
Answers are plain numbers, in µM.

What does the record list as IC50 for O=C(O)c1cc(O)c(O)c(O)c1 [gallic acid, 3,4,5-trihydroxybenzoic acid] ? 241

----------
TARGET_ENTITY: human P-selectin (Homo sapiens, UniProt P16109)
Construct: purchased R&D Systems Europe Ltd., Abingdon, United Kingdom
Sequence (P16109 with tags, fused parts or gaps limits assumed): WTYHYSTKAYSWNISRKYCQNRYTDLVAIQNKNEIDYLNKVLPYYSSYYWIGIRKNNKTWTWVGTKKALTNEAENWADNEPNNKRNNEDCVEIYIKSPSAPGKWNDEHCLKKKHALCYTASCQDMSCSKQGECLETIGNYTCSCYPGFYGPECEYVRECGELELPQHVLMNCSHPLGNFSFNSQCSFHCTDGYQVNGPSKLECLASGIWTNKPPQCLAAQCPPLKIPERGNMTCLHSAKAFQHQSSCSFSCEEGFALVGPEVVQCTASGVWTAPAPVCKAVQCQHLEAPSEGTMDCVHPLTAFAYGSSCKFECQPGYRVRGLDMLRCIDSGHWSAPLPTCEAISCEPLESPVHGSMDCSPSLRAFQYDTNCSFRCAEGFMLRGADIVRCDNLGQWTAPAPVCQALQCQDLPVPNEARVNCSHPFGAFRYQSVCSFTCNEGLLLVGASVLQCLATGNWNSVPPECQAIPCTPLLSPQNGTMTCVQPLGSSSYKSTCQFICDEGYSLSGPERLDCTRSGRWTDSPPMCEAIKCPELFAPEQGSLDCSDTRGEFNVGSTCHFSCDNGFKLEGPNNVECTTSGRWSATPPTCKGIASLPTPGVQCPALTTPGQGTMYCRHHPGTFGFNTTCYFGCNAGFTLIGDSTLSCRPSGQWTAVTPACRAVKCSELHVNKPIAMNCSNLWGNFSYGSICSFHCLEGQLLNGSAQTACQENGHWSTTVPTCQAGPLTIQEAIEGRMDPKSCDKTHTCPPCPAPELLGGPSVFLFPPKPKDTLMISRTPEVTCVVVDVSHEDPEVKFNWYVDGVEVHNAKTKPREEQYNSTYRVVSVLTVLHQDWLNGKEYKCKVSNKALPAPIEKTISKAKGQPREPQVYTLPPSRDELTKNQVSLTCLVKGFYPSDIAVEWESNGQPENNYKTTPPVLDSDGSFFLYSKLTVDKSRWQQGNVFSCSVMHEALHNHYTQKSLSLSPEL
EXPERIMENTAL_PROTOCOL: Competition assay of gallic acid with TM11-PO
Type: binding
MEASURED_QUANTITY: IC50 (µM)
Numbers only, in µM.

Request the reported IC50 associated with O=C(O)c1cc(O)c(O)c(O)c1 [gallic acid, 3,4,5-trihydroxybenzoic acid] 7.2

----------
Field: IC50. Provide a value for each of the compounds that follow.
TARGET_ENTITY: human P-selectin (Homo sapiens, UniProt P16109)
Construct: purchased R&D Systems Europe Ltd., Abingdon, United Kingdom
EXPERIMENTAL_PROTOCOL: Competition assay with biotin-PAA-Le^a-SO3H
SETUP_CONDITIONS: read-out: IC50, inhibition of biotin-PAA-Le^a-SO3 binding to human P-selectin

Example compounds with recorded IC50:
O=C(O)/C=C/c1ccc(O)c(O)c1 ... > 300 µM
O=C(O)c1ccc(O)cc1 [4-hydroxy benzoic acid] ... > 300 µM
CCCCCCCCCCCCOC(=O)c1cc(O)c(O)c(O)c1 [n-dodecyl gallate] ... > 300 µM

Could you share what IC50 was measured for O=C(O)c1cc(O)c(O)c(O)c1 [gallic acid, 3,4,5-trihydroxybenzoic acid] , tested on human P-selectin (Homo sapiens, UniProt P16109)? ~85 µM
